Data provenance: patent US11492335B2

Target: recombinant human MAO-B (monoamine oxidase-B) (Homo sapiens)
Construct: purchased Sigma-Aldrich
Sequence (P27338 whole entry): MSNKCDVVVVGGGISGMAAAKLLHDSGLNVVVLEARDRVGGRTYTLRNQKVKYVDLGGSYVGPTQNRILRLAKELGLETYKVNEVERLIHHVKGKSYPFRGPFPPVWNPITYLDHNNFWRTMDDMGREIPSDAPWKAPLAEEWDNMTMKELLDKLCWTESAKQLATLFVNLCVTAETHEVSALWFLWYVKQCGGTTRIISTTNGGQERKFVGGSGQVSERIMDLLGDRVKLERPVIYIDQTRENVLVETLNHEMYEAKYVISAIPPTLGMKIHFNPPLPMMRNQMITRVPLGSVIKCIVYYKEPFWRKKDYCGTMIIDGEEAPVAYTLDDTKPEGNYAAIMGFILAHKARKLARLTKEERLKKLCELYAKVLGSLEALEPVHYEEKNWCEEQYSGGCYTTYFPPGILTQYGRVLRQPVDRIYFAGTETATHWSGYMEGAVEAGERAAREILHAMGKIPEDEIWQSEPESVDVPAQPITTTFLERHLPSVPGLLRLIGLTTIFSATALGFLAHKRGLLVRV
Test: Activity on recombinant human MAO-B, Amplex Red method, 1 mM benzylamine substrate
Assay type: biochemical
Details: 1 mM benzylamine substrate, read-out: Inhibitory Activity (IC50, nM) MAO-B
Counter-ions that a name gives are not always drawn.
readout.label: IC50 (nM)

compound	readout.label	measurement.unit	val
Cc1cc(-n2cnn(C/C(=C/F)CN)c2=O)ncc1-c1ccc2c(c1)OCO2 [Example 159]	IC50	nM	74
Cc1cc(-n2cnn(C/C(=C/F)CN)c2=O)ncc1-c1ccc2cn[nH]c2c1 [Example 160]	IC50	nM	137
NC/C(=C\F)Cn1ncn(-c2cc(-c3ccc4c(c3)OCO4)ccn2)c1=O [Example 170]	IC50	nM	235

a: NC/C(=C\F)Cn1ncn(-c2cccc(-c3ccc4c(c3)OCCO4)n2)c1=O [Example 194]
b: Cc1cc(-c2cccc(-n3cnn(C/C(=C/F)CN)c3=O)n2)cc2c1NC(=O)CC2 [Example 197, hydrochloride]
Of the two listed items, a and b , which carries the larger IC50 figure? Your choice should be expressed through its label. a
(a: 2710 nM, b: 250 nM)
